- test_details: pKa of nitrogen -3(N3) of the compound
- Type: physicochemical
observed_property: pKa

# count of solved cases: 3
1. Cc1ccc2nc(C(F)F)nc(O)c2c1 :: 7.2
2. Cc1ccc2nc(C)nc(O)c2c1 :: 10.2
3. Cc1ccc2nc(N)nc(O)c2c1 :: 9.4

a = Cc1ccc2nc(CF)nc(O)c2c1
b = Cc1ccc2nc(C(F)(F)F)nc(O)c2c1
*Q* When a and b are compared, which has the higher number for pKa? Lab log: write the label of the selected item as the result.
*A* a
(a: 8.5, b: 5.9)

###

As a worked illustration, we turn to IC50 data collected for UniProt P07607.
observed_property: IC50 (nM)

Recorded IC50, per entry:
1) COCCN(Cc1ccc2nc(C)[nH]c(=O)c2c1)c1ccc(C(=O)N[C@@H](CCC(=O)O)C(=O)O)cc1 :: 16300
2) CC(=O)CN(Cc1ccc2nc(C)[nH]c(=O)c2c1)c1ccc(C(=O)N[C@@H](CCC(=O)O)C(=O)O)cc1 :: 25000
3) Cc1nc2ccc(CN(CCS)c3ccc(C(=O)N[C@@H](CCC(=O)O)C(=O)O)cc3)cc2c(=O)[nH]1 :: 1760

1 = Cc1nc2ccc(CN(C)c3ccc(C(=O)N[C@@H](CCC(=O)O)C(=O)O)cc3)cc2c(=O)[nH]1
2 = CCc1nc2ccc(CNc3ccc(C(=O)N[C@@H](CCC(=O)O)C(=O)O)cc3)cc2c(=O)[nH]1
*Q* Return label of the item with the larger IC50. Candidates: 1 , 2 . Please respond with the label that marks your chosen entry.
*A* 2

###

- test_details: pKa of nitrogen -1(N1) of the compound; too low to measure accurately
- Assay type: physicochemical
observed_property: pKa

The cases that follow already have their pKa on record.
1) Cc1ccc2nc(C(F)F)nc(O)c2c1 :: < 2
2) Cc1ccc2nc(CF)nc(O)c2c1 :: < 2

Value of measured pKa for the entry "Cc1ccc2nc(C(F)(F)F)nc(O)c2c1" : < 2

###

- test_details: Solubility in […] M aqueous NaH2PO4 buffer at pH 7.0 and 25 degree C
- Type: physicochemical
- condition_label: 0.92 M aqueous NaH2PO4 buffer
observed_property: solubility (mg/mL)

P = C#CCN(Cc1ccc2nc(C)[nH]c(=O)c2c1)c1ccc(C(=O)N[C@@H](CCC(=O)O)C(=O)O)cc1
Q = C#CCN(Cc1ccc2nc(N)[nH]c(=O)c2c1)c1ccc(C(=O)N[C@@H](CCC(=O)O)C(=O)O)cc1
*Q* Pick one, P or Q : lowest reported solubility. State the label of the item chosen.
*A* Q

###

- target_or_test_system: Thymidylate synthase (Mus musculus, UniProt P07607)
- Sequence (P07607 whole entry): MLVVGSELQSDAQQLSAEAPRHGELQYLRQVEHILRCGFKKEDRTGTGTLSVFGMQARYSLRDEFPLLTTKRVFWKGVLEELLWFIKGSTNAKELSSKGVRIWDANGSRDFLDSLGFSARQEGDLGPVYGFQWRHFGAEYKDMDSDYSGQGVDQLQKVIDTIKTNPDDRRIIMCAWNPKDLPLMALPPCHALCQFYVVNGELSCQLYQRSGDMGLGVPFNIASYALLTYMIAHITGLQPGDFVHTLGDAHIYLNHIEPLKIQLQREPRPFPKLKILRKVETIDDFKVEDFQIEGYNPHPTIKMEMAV
observed_property: IC50 (µM)

Some solved cases for reference:
1) Cc1nc2ccc(CN(CCCO)c3ccc(C(=O)N[C@@H](CCC(=O)O)C(=O)O)cc3)cc2c(=O)[nH]1 :: 0.54
2) CN(Cc1ccc2nc(CF)[nH]c(=O)c2c1)c1ccc(C(=O)N[C@@H](CCC(=O)O)C(=O)O)cc1 :: 2.92
3) Cc1nc2ccc(CN(CCBr)c3ccc(C(=O)N[C@@H](CCC(=O)O)C(=O)O)cc3)cc2c(=O)[nH]1 :: 1.3

a = C=CCN(Cc1ccc2nc(C)[nH]c(=O)c2c1)c1ccc(C(=O)N[C@@H](CCC(=O)O)C(=O)O)cc1
b = COCCCN(Cc1ccc2nc(C)[nH]c(=O)c2c1)c1ccc(C(=O)N[C@@H](CCC(=O)O)C(=O)O)cc1
*Q* Smaller IC50 value, a vs b ? Respond using the label that marks the chosen record.
*A* a
